Below, each entry is listed with its recorded % assay/degs, difference from T = 0.
type: physicochemical; conditions: pH 3.8; Ambient; 96 h
The answer is to be given in %; state only the numeric part.

// worked examples, % assay/degs, difference from T = 0 included
>>> print(df.to_string())
                                   compound                 experimental_readout  observed_measurement
0  N#C[C@@]1(c2ccc3c(N)ncnn23)O[C@H](COP(=O)(O)Oc2ccccc2)[C@@H](O)[C@H]1O [Compound F]  % assay/degs, difference from T = 0                  0.06
1  CCC(CC)COC(=O)[C@H](C)N[P@](=O)(OC[C@H]1O[C@@](C#N)(c2ccc3c(N)ncnn23)[C@H](O)[C@@H]1O)Oc1ccccc1 [Formula Ia]  % assay/degs, difference from T = 0                   0.0
2  CCC(CC)COC(=O)[C@H](C)N[P@](=O)(OC[C@H]1O[C@@](C(N)=O)(c2ccc3c(N)ncnn23)[C@H](O)[C@@H]1O)Oc1ccccc1 [Compound G]  % assay/degs, difference from T = 0                  0.00

// next item, % assay/degs, difference from T = 0 requested
Record request: % assay/degs, difference from T = 0 value, item N#C[C@@]1(c2ccc3c(N)ncnn23)O[C@H](CO)[C@@H](O)[C@H]1O [Compound A]
0.00

* * *

format: physicochemical; details: pH 3.5; Ambient; 96 h
As shown below, each of these molecules has a reported % assay/degs, difference from T = 0 value.
Answer in %, number only, no unit symbol.

Solved cases below.
>>> print(df.to_string())
                                   molecule                 experimental_readout  observed_measurement
0  N#C[C@@]1(c2ccc3c(N)ncnn23)O[C@H](CO)[C@@H](O)[C@H]1O [Compound A]  % assay/degs, difference from T = 0                  0.01
1  CCC(CC)COC(=O)[C@H](C)N[P@](=O)(OC[C@H]1O[C@@](C(N)=O)(c2ccc3c(N)ncnn23)[C@H](O)[C@@H]1O)Oc1ccccc1 [Compound G]  % assay/degs, difference from T = 0                  0.00
2  CCC(CC)COC(=O)[C@H](C)N[P@](=O)(OC[C@H]1O[C@@](C#N)(c2ccc3c(N)ncnn23)[C@H](O)[C@@H]1O)Oc1ccccc1 [Formula Ia]  % assay/degs, difference from T = 0                   0.0

// below: % assay/degs, difference from T = 0 requested for another molecule
Query: % assay/degs, difference from T = 0; subject: N#C[C@@]1(c2ccc3c(N)ncnn23)O[C@H](COP(=O)(O)Oc2ccccc2)[C@@H](O)[C@H]1O [Compound F]
0.11

* * *

Format: physicochemical
Conditions: pH 3.5; Ambient; 72 h
Description: For each condition, samples were staged at ambient and refrigerated conditions. Samples were analyzed for % assay/degs, appearance, reconstitution time, pH, and compared to T=0. The structures of the key impurities/metabolites are shown below.
# % assay/degs, difference from T = 0 listing for each entry below
Just the number in %, nothing appended.

Consider the reported % assay/degs, difference from T = 0 for these molecules:
                                smiles_code  observed_measurement
0  CCC(CC)COC(=O)[C@H](C)N[P@](=O)(OC[C@H]1O[C@@](C#N)(c2ccc3c(N)ncnn23)[C@H](O)[C@@H]1O)Oc1ccccc1                   0.2
1  N#C[C@@]1(c2ccc3c(N)ncnn23)O[C@H](COP(=O)(O)Oc2ccccc2)[C@@H](O)[C@H]1O                  0.08
2  CCC(CC)COC(=O)[C@H](C)N[P@](=O)(OC[C@H]1O[C@@](C(N)=O)(c2ccc3c(N)ncnn23)[C@H](O)[C@@H]1O)Oc1ccccc1                  0.00

Entry `N#C[C@@]1(c2ccc3c(N)ncnn23)O[C@H](CO)[C@@H](O)[C@H]1O` has what % assay/degs, difference from T = 0?
0.00

* * *

type: physicochemical; conditions: pH 3.5; 2-8° C.; 2 h
Let's look at some compounds and their measured % assay/degs, difference from T = 0.
Numbers only; they are read as %.

>>> print(df.to_string())
                                smiles_code                 experimental_readout  uom  observed_measurement
0  CCC(CC)COC(=O)[C@H](C)N[P@](=O)(OC[C@H]1O[C@@](C(N)=O)(c2ccc3c(N)ncnn23)[C@H](O)[C@@H]1O)Oc1ccccc1  % assay/degs, difference from T = 0    %                  0.00
1  N#C[C@@]1(c2ccc3c(N)ncnn23)O[C@H](COP(=O)(O)Oc2ccccc2)[C@@H](O)[C@H]1O  % assay/degs, difference from T = 0    %                  0.00
2  CCC(CC)COC(=O)[C@H](C)N[P@](=O)(OC[C@H]1O[C@@](C#N)(c2ccc3c(N)ncnn23)[C@H](O)[C@@H]1O)Oc1ccccc1  % assay/degs, difference from T = 0    %                   0.6

Now turn to the next compound.
Any idea what its % assay/degs, difference from T = 0 is? The compound is `N#C[C@@]1(c2ccc3c(N)ncnn23)O[C@H](CO)[C@@H](O)[C@H]1O`
0.00

* * *

Documented % assay/degs, difference from T = 0 across a set of compounds
format: physicochemical; settings: pH 3.8; 2-8° C.; 24 h
Give the value in % but do not write % after it.

Solved entries (count: 3):
>>> df
                                smiles_code  observed_measurement
0  CCC(CC)COC(=O)[C@H](C)N[P@](=O)(OC[C@H]1O[C@@](C(N)=O)(c2ccc3c(N)ncnn23)[C@H](O)[C@@H]1O)Oc1ccccc1                  0.00
1  N#C[C@@]1(c2ccc3c(N)ncnn23)O[C@H](COP(=O)(O)Oc2ccccc2)[C@@H](O)[C@H]1O                  0.00
2  N#C[C@@]1(c2ccc3c(N)ncnn23)O[C@H](CO)[C@@H](O)[C@H]1O                  0.00

Which % assay/degs, difference from T = 0 is listed for `CCC(CC)COC(=O)[C@H](C)N[P@](=O)(OC[C@H]1O[C@@](C#N)(c2ccc3c(N)ncnn23)[C@H](O)[C@@H]1O)Oc1ccccc1` ?
0.3

* * *

format: physicochemical; settings: pH 1.8; 2-8° C.; 8 h
Experimental readout: % assay/degs, difference from T = 0 (%)
Field format: number, assumed %, no unit text.

The following compounds have reported results that may help.
In [3]: df
Out[3]:
                                smiles_code  uom  observed_measurement
0  N#C[C@@]1(c2ccc3c(N)ncnn23)O[C@H](COP(=O)(O)Oc2ccccc2)[C@@H](O)[C@H]1O    %                  0.08
1  CCC(CC)COC(=O)[C@H](C)N[P@](=O)(OC[C@H]1O[C@@](C#N)(c2ccc3c(N)ncnn23)[C@H](O)[C@@H]1O)Oc1ccccc1    %                  −0.2

// returns reported % assay/degs, difference from T = 0 for input `CCC(CC)COC(=O)[C@H](C)N[P@](=O)(OC[C@H]1O[C@@](C(N)=O)(c2ccc3c(N)ncnn23)[C@H](O)[C@@H]1O)Oc1ccccc1`
0.00

Please answer likewise for `N#C[C@@]1(c2ccc3c(N)ncnn23)O[C@H](CO)[C@@H](O)[C@H]1O`
0.00

* * *

Consider the following compounds and their measured % assay/degs, difference from T = 0 readings.
type: physicochemical; conditions: pH 3.5; Ambient; 2 h
Answer with a number only, understood to be in %.

Some compounds with known % assay/degs, difference from T = 0 results, for comparison:
In [3]: df
Out[3]:
                                smiles_code  uom  observed_measurement
0  CCC(CC)COC(=O)[C@H](C)N[P@](=O)(OC[C@H]1O[C@@](C(N)=O)(c2ccc3c(N)ncnn23)[C@H](O)[C@@H]1O)Oc1ccccc1    %                  0.00
1  CCC(CC)COC(=O)[C@H](C)N[P@](=O)(OC[C@H]1O[C@@](C#N)(c2ccc3c(N)ncnn23)[C@H](O)[C@@H]1O)Oc1ccccc1    %                   0.6

Would you mind telling me what % assay/degs, difference from T = 0 value was observed for `N#C[C@@]1(c2ccc3c(N)ncnn23)O[C@H](COP(=O)(O)Oc2ccccc2)[C@@H](O)[C@H]1O` ?
0.00

And `N#C[C@@]1(c2ccc3c(N)ncnn23)O[C@H](CO)[C@@H](O)[C@H]1O` ?
0.00
